Target: human PCSK9 (PCSK9 antigen, SEQ ID NO. 53) (human, UniProt A8T644 31-152; Q8NBP7 153-692, Biotin-labelled on amines in the MSD-SET and sorting experiments; positions not given.); further: unit not given here
Experiment: cell-based or functional assay
Metric name: BODIPY-LDL uptake by HepG2 cells, fluorescence, 66.7 nM, replicate 1

[[record]]
binder = "ADI-10088 (antibody, human IgG2, kappa, V domains shown, IgG) VH: QLQLQESGPGLVKPSETLSLTCTVSGGSIGSSSYYWAWIRQPPGKGLEWIGSINYRGSTYYNPSLKSRVTISVDTSKNQFSLKLSSVTAADTAVYYCARENSGVVPAAGPNWFDPWGQGTLVTVSS VL: EIVLTQSPATLSLSPGERATLSCRASQSVSSYLAWYQQKPGQAPRLLIYDASNRATGIPARFSGSGSGTDFTLTISSLEPEDFAVYYCQQRRNWFTFGGGTKVEIKR"
result = 0.706

